Assay: chemical genetic growth profiling, strain panel (AID 1159580);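 note: tested at 20 µM; growth read once vehicle control cultures reached saturation at 30 °C; 1 = growth at the plate median or of vehicle wells; lower values mean less growth of the strain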
Details: S. cerevisiae deletion strains, growth OD, locus YHR200W, strain rpn10, hits give low values
The campaign covered roughly 5,500 compounds. About 2,000 (36%) were called active. About 18% were inconclusive and are not listed. This is one part of the list.

[
  {
    "Compound": "Cc1ccccc1N1C(=O)c2cc(S(N)(=O)=O)c(Cl)cc2NC1C (stereo unspecified)",
    "normalized growth": "0.982 (inactive)"
  },
  {
    "Compound": "C[C@@H]1O[C@@H](O[C@H]2CC[C@]3(C=O)C4CC[C@]5(C)[C@@H](C6=CC(=O)OC6)CC[C@]5(O)C4CC[C@]3(O)C2)[C@H](O)[C@H](O)[C@H]1O (stereo partly specified)",
    "normalized growth": "1 (inactive)"
  },
  {
    "Compound": "C[C@@H]1CC[C@@]23CCC4(C)[C@@](C=CC5[C@@]6(C)CC[C@H](O)C(C)(C)C6CC[C@]54C)(OC2=O)C3[C@H]1C (stereo partly specified)",
    "normalized growth": "0.988 (inactive)"
  },
  {
    "Compound": "CO[C@H]1[C@H](O)[C@@H](O[C@H]2CC[C@]3(C=O)C4CC[C@]5(C)[C@@H](C6=CC(=O)OC6)CC[C@]5(O)C4CC[C@@H]3C2)O[C@@H](C)[C@@H]1O (stereo partly specified)",
    "normalized growth": "0.999 (inactive)"
  },
  {
    "Compound": "Cc1c(OCC(F)(F)F)ccnc1CS(=O)c1nc2ccccc2[nH]1 (stereo unspecified)",
    "normalized growth": "0.963 (inactive)"
  },
  {
    "Compound": "C[C@]12CC[C@H](O)C[C@H]1CCC1C2CC[C@]2(C)[C@@H](C3=CC(=O)OC3)[C@@H](O)C[C@]12O (stereo partly specified)",
    "normalized growth": "0.995 (inactive)"
  },
  {
    "Compound": "CC[C@H]1CN2CCC1C[C@@H]2[C@@H](O)c1ccnc2ccc(OC)cc12 (stereo partly specified)",
    "normalized growth": "1.02 (inactive)"
  },
  {
    "Compound": "CC1(C)[C@@H]2CC[C@@]1(C)C(=O)C2",
    "normalized growth": "1 (inactive)"
  },
  {
    "Compound": "NS(=O)(=O)c1cc2c(cc1C(F)(F)F)NC(Cc1ccccc1)NS2(=O)=O (stereo unspecified)",
    "normalized growth": "1.01 (inactive)"
  },
  {
    "Compound": "COc1c(O)cc2c(c1O)[C@H]1O[C@H](CO)[C@@H](O)[C@H](O)[C@@H]1OC2=O",
    "normalized growth": "1 (inactive)"
  },
  {
    "Compound": "C[C@@H]1CC[C@@]23CCC4(C)[C@@](C=CC5[C@@]6(C)CCC(=O)C(C)(C)C6CC[C@]54C)(OC2=O)C3[C@H]1C (stereo partly specified)",
    "normalized growth": "1.02 (inactive)"
  },
  {
    "Compound": "CC(=O)O[C@@H]1CC2C(C)(CC[C@H](O)C2(C)C)C2CC[C@]3(C)C(=CC(=O)O[C@H]3c3ccoc3)C21C (stereo partly specified)",
    "normalized growth": "0.995 (inactive)"
  },
  {
    "Compound": "C[C@H]1OC(O[C@H]2[C@@H](O)CC(O[C@H]3[C@@H](O)C[C@H](O[C@H]4CC[C@]5(C)C6CC[C@]7(C)[C@@H](C8=CC(=O)OC8)[C@@H](O)C[C@]7(O)[C@@H]6CC[C@@H]5C4)O[C@@H]3C)O[C@@H]2C)C[C@H](O)C1O (stereo partly specified)",
    "normalized growth": "1 (inactive)"
  },
  {
    "Compound": "O=C(CCCN1CCC2(CC1)C(=O)NCN2c1ccccc1)c1ccc(F)cc1",
    "normalized growth": "0.987 (inactive)"
  },
  {
    "Compound": "CC1(C)C(=O)CC[C@@]2(C)C1C[C@@H](O)[C@@]1(C)C3=CC(=O)O[C@@H](c4ccoc4)[C@]3(C)CCC21 (stereo partly specified)",
    "normalized growth": "1 (inactive)"
  },
  {
    "Compound": "CC(C)=CC1C(CO)C1(C)C (stereo unspecified)",
    "normalized growth": "1 (inactive)"
  }
]

----------
Each record here notes measured normalized growth.
Assay: chemical genetic growth profiling, strain panel (AID 1159580);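 note: tested at 20 µM; growth read once vehicle control cultures reached saturation at 30 °C; 1 = growth at the plate median or of vehicle wells; lower values mean less growth of the strain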
Settings: S. cerevisiae deletion strains, growth OD, locus YBR009C, strain hhf1, hits give low values
About 2,000 (36%) of roughly 5,500 compounds were called active. About 18% were inconclusive and are not listed. Some of the results follow.

[
  {
    "Compound": "C[C@H]1[C@H](C)CC[C@]2(C(=O)O)CC[C@]3(C)C(=CCC4[C@@]5(C)C[C@@H](O)[C@H](O)[C@@](C)(CO)C5[C@H](O)C[C@]43C)[C@H]12 (some centres undefined)",
    "normalized growth": 0.936
  },
  {
    "Compound": "NC[C@@H]1O[C@H](O[C@@H]2[C@@H](CO)OC(O[C@@H]3[C@@H](O)[C@H](N)C[C@H](N)[C@H]3O[C@H]3O[C@H](CO)[C@@H](O)[C@H](O)[C@H]3N)[C@@H]2O)[C@H](N)[C@@H](O)[C@@H]1O (some centres undefined)",
    "normalized growth": 0.986
  },
  {
    "Compound": "C=CCSC[C@@H](N)C(=O)O",
    "normalized growth": 1
  },
  {
    "Compound": "C[C@H]1[C@H](C)CC[C@]2(C(=O)O)CC[C@]3(C)C(=CCC4[C@@]5(C)C[C@@H](O)[C@H](O)[C@@](C)(CO)C5CC[C@]43C)[C@H]12 (some centres undefined)",
    "normalized growth": 1.01
  },
  {
    "Compound": "CC(C)(C)NCC(O)COc1cccc2c1CCCC2=O (centres undefined)",
    "normalized growth": 1
  },
  {
    "Compound": "C=CCSCC=C",
    "normalized growth": 0.981
  },
  {
    "Compound": "CNC[C@H](O)c1cccc(O)c1",
    "normalized growth": 0.995
  },
  {
    "Compound": "Cc1c(OCC(F)(F)F)ccnc1CS(=O)c1nc2ccccc2[nH]1 (centres undefined)",
    "normalized growth": 1.02
  },
  {
    "Compound": "C=CCSSSCC=C",
    "normalized growth": 0.957
  }
]

----------
Test: chemical genetic growth profiling, strain panel (AID 1159580);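 note: tested at 20 µM; growth read once vehicle control cultures reached saturation at 30 °C; 1 = growth at the plate median or of vehicle wells; lower values mean less growth of the strain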
Settings: S. cerevisiae deletion strains, growth OD, locus YCL011C, strain gbp2, hits give low values
The campaign covered roughly 5,500 compounds. About 2,000 (36%) were called active. Inconclusive results (about 18%) are left out. The list shows a part of the results.

[
  {
    "Compound": "CC(C)c1cccc(O)c(=O)c1",
    "normalized growth": 0.0593
  },
  {
    "Compound": "CCC(=O)O[C@]1(C(=O)CCl)[C@@H](C)CC2C3CCC4=CC(=O)C=C[C@]4(C)[C@@]3(F)[C@@H](O)C[C@@]21C (stereo not given in full)",
    "normalized growth": 1.02
  },
  {
    "Compound": "CCCCC(=O)O[C@]1(C(=O)CO)[C@@H](C)CC2C3CCC4=CC(=O)C=C[C@]4(C)[C@@]3(F)C(O)C[C@@]21C (stereo not given in full)",
    "normalized growth": 0.99
  },
  {
    "Compound": "COC1=CC(=O)C=C(OC)C1=O",
    "normalized growth": 1.01
  },
  {
    "Compound": "CCc1ccc2c(O)c3c(cc2c1C(=O)OC)C(=O)c1c(O)ccc(O)c1C3=O",
    "normalized growth": 0.984
  },
  {
    "Compound": "O=C(/C=C(\\O)c1ccccc1)c1ccccc1O",
    "normalized growth": 0.681
  },
  {
    "Compound": "CC(=O)O[C@@H]1c2c(ccc3ccc(=O)oc23)OC(C)(C)[C@@H]1OC(=O)CC(C)C",
    "normalized growth": 1.01
  },
  {
    "Compound": "COC1CC(O[C@H]2CC[C@]3(C=O)C4CC[C@]5(C)C(C6=CC(=O)OC6)CC[C@]5(O)C4CC[C@]3(O)C2)OC(C)C1O (stereo not given in full)",
    "normalized growth": 0.961
  },
  {
    "Compound": "NC(=O)c1ccccc1O",
    "normalized growth": 0.956
  },
  {
    "Compound": "O=C(O)c1ccccc1O",
    "normalized growth": 0.983
  }
]

----------
Experiment: chemical genetic growth profiling, strain panel (AID 1159580);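 note: tested at 20 µM; growth read once vehicle control cultures reached saturation at 30 °C; 1 = growth at the plate median or of vehicle wells; lower values mean less growth of the strain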
Settings: S. cerevisiae deletion strains, growth OD, locus YDR318W, strain mcm21
Among all 5,500 compounds or so, about 2,000 (36%) were called active. Roughly 18% stayed inconclusive and do not appear here. Rule as the data show it: active = normalized growth mostly below about 0.91 (no sharp cut-off); inconclusive = no clear call, values can overlap the other calls; inactive = mostly above about 0.92. The list shows a part of the results.
Possible outcomes: YES (active), NO (inactive)

[
  {
    "Compound": "CC1=CC(=O)C2C(C)(C)CCC[C@]2(C)[C@@]1(O)CCc1ccoc1 (stereo not given in full)",
    "Class assignment": "NO"
  },
  {
    "Compound": "CC[C@@]1(O)C(=O)OCc2c1cc1n(c2=O)Cc2cc3cc(O)ccc3nc2-1",
    "Class assignment": "NO"
  },
  {
    "Compound": "CC[C@@]1(O)C(=O)OCc2c1cc1n(c2=O)Cc2cc3ccccc3nc2-1",
    "Class assignment": "YES"
  },
  {
    "Compound": "O=C(CCCN1CCC(O)(c2ccc(Cl)cc2)CC1)c1ccc(F)cc1",
    "Class assignment": "YES"
  },
  {
    "Compound": "Cc1ccc(C(C)C)c(O)c1C(=O)O",
    "Class assignment": "NO"
  },
  {
    "Compound": "C[C@@H](CO)NC(=O)C1C=C2c3cccc4[nH]cc(c34)C[C@H]2N(C)C1 (stereo not given in full)",
    "Class assignment": "NO"
  },
  {
    "Compound": "CCOC(=O)C1=C(O)C(=O)N(Cc2ccccc2)C1",
    "Class assignment": "NO"
  },
  {
    "Compound": "CCCc1nn(C)c2c(=O)[nH]c(-c3cc(S(=O)(=O)N4CCN(C)CC4)ccc3OCC)nc12",
    "Class assignment": "NO"
  },
  {
    "Compound": "COc1ccccc1N1CCN(CCCNc2cc(=O)n(C)c(=O)n2C)CC1",
    "Class assignment": "NO"
  },
  {
    "Compound": "Cc1ccccc1N1C(=O)c2cc(S(N)(=O)=O)c(Cl)cc2NC1C (stereo not given)",
    "Class assignment": "NO"
  },
  {
    "Compound": "CC1(C)C(O)CC(=O)C2(C)C1CC(O)C1(C)C2CCC2(C)C(c3ccoc3)OC(=O)C3OC321 (stereo not given)",
    "Class assignment": "NO"
  },
  {
    "Compound": "O=C(O)c1cc(O)ccc1O",
    "Class assignment": "NO"
  },
  {
    "Compound": "CN(C)CC[C@H](c1ccc(Cl)cc1)c1ccccn1",
    "Class assignment": "NO"
  },
  {
    "Compound": "CC1CCCC(C)N1NC(=O)c1ccc(Cl)c(S(N)(=O)=O)c1 (stereo not given)",
    "Class assignment": "NO"
  },
  {
    "Compound": "CC1(C)[C@@H]2CC[C@@]1(C)C(=O)C2",
    "Class assignment": "NO"
  },
  {
    "Compound": "CC1Cc2ccccc2N1NC(=O)c1ccc(Cl)c(S(N)(=O)=O)c1 (stereo not given)",
    "Class assignment": "NO"
  },
  {
    "Compound": "NC[C@@H]1O[C@H](O[C@@H]2[C@@H](CO)OC(O[C@@H]3[C@@H](O)[C@H](N)C[C@H](N)[C@H]3O[C@H]3O[C@H](CO)[C@@H](O)[C@H](O)[C@H]3N)[C@@H]2O)[C@H](N)[C@@H](O)[C@@H]1O (stereo not given in full)",
    "Class assignment": "NO"
  },
  {
    "Compound": "COC1=CC(C)[C@@H]2C[C@H]3OC(=O)C[C@H]4C(C)=C(OC)C(=O)C([C@@]34C)[C@@]2(C)C1=O (stereo not given in full)",
    "Class assignment": "NO"
  },
  {
    "Compound": "C[C@@H]1CC[C@@]23CCC4(C)[C@@](C=CC5[C@@]6(C)CC[C@H](O)C(C)(C)C6CC[C@]54C)(OC2=O)C3[C@H]1C (stereo not given in full)",
    "Class assignment": "NO"
  },
  {
    "Compound": "COc1c(O)cc2c(c1O)[C@H]1O[C@H](CO)[C@@H](O)[C@H](O)[C@@H]1OC2=O",
    "Class assignment": "NO"
  }
]
